Biological target: T1, IL-1β (UniProt P01584 117-269)
T1 construct: Antigen of XPA23
Test: Biacore, Fab periplasmic extract
For each record, write down the corresponding fold difference in affinity against the original.
Expressed in fold, but write only the number.

Provide fold difference in affinity against the original value for the following binder: XPA23 heavy chain Y101L (Fab, V domains shown, Fab, periplasmic extract; also called C5A Y101L) VH: EVQLLESGGGLVQPGGSLRLSCAASGFTFSKYFMFWVRQAPGKGLEWVSVISPSGGMTRYADSVKGRFTISRDNSKNTLYLQMNSLRAEDTAVYYCARVGLGGNSDYWGQGTLVTVSS VL: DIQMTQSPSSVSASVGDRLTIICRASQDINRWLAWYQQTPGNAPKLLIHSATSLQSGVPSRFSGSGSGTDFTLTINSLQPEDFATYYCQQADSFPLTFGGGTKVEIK
1.91

Provide fold difference in affinity against the original value for the following binder: XPA23 heavy chain S52V (Fab, V domains shown, Fab, periplasmic extract; also called C5A S52V) VH: EVQLLESGGGLVQPGGSLRLSCAASGFTFSKYFMFWVRQAPGKGLEWVSVIVPSGGMTRYADSVKGRFTISRDNSKNTLYLQMNSLRAEDTAVYYCARVGYGGNSDYWGQGTLVTVSS VL: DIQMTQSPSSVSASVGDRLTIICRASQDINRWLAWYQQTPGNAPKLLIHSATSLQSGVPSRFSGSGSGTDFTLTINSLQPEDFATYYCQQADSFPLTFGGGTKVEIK
0.04

Provide fold difference in affinity against the original value for the following binder: XPA23 heavy chain V50G (Fab, V domains shown, Fab, periplasmic extract; also called C5A V50G) VH: EVQLLESGGGLVQPGGSLRLSCAASGFTFSKYFMFWVRQAPGKGLEWVSGISPSGGMTRYADSVKGRFTISRDNSKNTLYLQMNSLRAEDTAVYYCARVGYGGNSDYWGQGTLVTVSS VL: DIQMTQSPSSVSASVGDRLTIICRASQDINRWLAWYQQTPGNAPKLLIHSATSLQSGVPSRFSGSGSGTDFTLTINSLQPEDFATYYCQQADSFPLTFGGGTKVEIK
0.03
